Test system: rats
run.description: Carrageenan-induced mechanical hyperalgesia (pain pressure threshold, Randall-Selitto)
Assay type: in vivo, Wistar rats
measurement.conditions: 20 mg/kg i.p.; 2 h after carrageenan; mean ± SEM, rats
measured.attribute: Pain Threshold
Answer with the value and then the unit.

Please review the following examples before continuing.
Request: Return reported Pain Threshold; argument: COc1ccccc1N1CCN(CC(O)CN2C(=O)c3ccccc3C2=O)CC1 (centres unmarked)
Response: 141.7 ± 1.7 g

Request: Return reported Pain Threshold; argument: O=C1c2ccccc2C(=O)N1CC(O)CN1CCN(C(c2ccccc2)c2ccccc2)CC1 (centres unmarked)
Response: 145 ± 1.5 g

Request: Return reported Pain Threshold; argument: O=C1c2ccccc2C(=O)N1CC(O)CN1CCN(c2cccc(C(F)(F)F)c2)CC1 (centres unmarked)
Response: 150.8 ± 3.9 g

New cases:
Request: Return reported Pain Threshold; argument: O=C1c2ccccc2C(=O)N1CC(O)CN1CCN(c2ccccc2)CC1 (centres unmarked)
Response: 148.3 ± 2.8 g

Request: Return reported Pain Threshold; argument: CC(C(=O)O)c1cccc(C(=O)c2ccccc2)c1 (centres unmarked) [Ketoprofen, ketoprofen, reference compound]
Response: 187.5 ± 9.0 g

---

System: mice
run.description: Oxaliplatin-induced neuropathic pain, von Frey test (tactile allodynia)
Assay type: in vivo, Albino Swiss mice
measurement.conditions: early phase, 3 h after oxaliplatin; 10 mg/kg i.p.
measured.attribute: Analgesic activity (von Frey) (%)
Only the number, expressed in %, is required.

Please review the following examples before continuing.
Request: Return reported Analgesic activity (von Frey); argument: O=C1c2ccccc2C(=O)N1CC(O)CN1CCN(c2ccccc2)CC1 (stereo not shown)
Response: 60.7

Request: Return reported Analgesic activity (von Frey); argument: COc1ccccc1N1CCN(CC(O)CN2C(=O)c3ccccc3C2=O)CC1 (stereo not shown)
Response: 81

Request: Return reported Analgesic activity (von Frey); argument: O=C1c2ccccc2C(=O)N1CC(O)CN1CCN(c2cccc(C(F)(F)F)c2)CC1 (stereo not shown)
Response: 82.9

New cases:
Request: Return reported Analgesic activity (von Frey); argument: O=C1c2ccccc2C(=O)N1CC(O)CN1CCN(C(c2ccccc2)c2ccccc2)CC1 (stereo not shown)
Response: 76.2

---

Below: a set of entries, each annotated with reported CL/F.
run.description: Pharmacokinetic study after single i.p. administration, serum and brain concentrations by LC-MS/MS, non-compartmental analysis
Type: in vivo, Albino Swiss mice
measurement.conditions: Albino Swiss, mouse, ip; serum; mice, 5 mg/kg i.p.
Only the number, expressed in mL/min/kg, is required.

Please review the following examples before continuing.
Request: Return reported CL/F; argument: O=C1c2ccccc2C(=O)N1CC(O)CN1CCN(c2ccccc2)CC1 (stereo not shown) [Compound F1]
Response: 395

Request: Return reported CL/F; argument: O=C1c2ccccc2C(=O)N1CC(O)CN1CCN(C(c2ccccc2)c2ccccc2)CC1 (stereo not shown) [Compound F4]
Response: 800

Request: Return reported CL/F; argument: COc1ccccc1N1CCN(CC(O)CN2C(=O)c3ccccc3C2=O)CC1 (stereo not shown) [Compound F2]
Response: 279

Here's the next entry for you.
Request: Return reported CL/F; argument: O=C1c2ccccc2C(=O)N1CC(O)CN1CCN(c2cccc(C(F)(F)F)c2)CC1 (stereo not shown) [Compound F3]
Response: 297

---

Below: a set of entries, each annotated with reported Reduction of pain reaction (licking duration), neurogenic phase.
Test system: mice
run.description: Formalin test
Type: in vivo, Albino Swiss mice
measurement.conditions: phase I (0–5 min); 10 mg/kg i.p.; vs vehicle
Only the number, expressed in %, is required.

Request: Return reported Reduction of pain reaction (licking duration), neurogenic phase; argument: O=C1c2ccccc2C(=O)N1CC(O)CN1CCN(c2ccccc2)CC1 (stereo not shown)
Response: 44.9

Request: Return reported Reduction of pain reaction (licking duration), neurogenic phase; argument: COc1ccccc1N1CCN(CC(O)CN2C(=O)c3ccccc3C2=O)CC1 (stereo not shown)
Response: 44.6

---

Tested on: mice
run.description: Formalin test
Assay type: in vivo, Albino Swiss mice
measurement.conditions: phase II (15–30 min); 10 mg/kg i.p.; vs vehicle
// classify: if (Reduction of pain response, inflammatory phase < 60%) true else false

Check out these entries, answers already filled in.
Request: # strict comparison: is reported Reduction of pain response, inflammatory phase < 60%? input = O=C1c2ccccc2C(=O)N1CC(O)CN1CCN(C(c2ccccc2)c2ccccc2)CC1 (centres unmarked)
Response: true

Request: # strict comparison: is reported Reduction of pain response, inflammatory phase < 60%? input = O=C1c2ccccc2C(=O)N1CC(O)CN1CCN(c2ccccc2)CC1 (centres unmarked)
Response: false

Request: # strict comparison: is reported Reduction of pain response, inflammatory phase < 60%? input = O=C1c2ccccc2C(=O)N1CC(O)CN1CCN(c2cccc(C(F)(F)F)c2)CC1 (centres unmarked)
Response: true

New cases:
Request: # strict comparison: is reported Reduction of pain response, inflammatory phase < 60%? input = COc1ccccc1N1CCN(CC(O)CN2C(=O)c3ccccc3C2=O)CC1 (centres unmarked)
Response: false

Request: # strict comparison: is reported Reduction of pain response, inflammatory phase < 60%? input = CC(C(=O)O)c1cccc(C(=O)c2ccccc2)c1 (centres unmarked) [Ketoprofen, ketoprofen, reference compound]
Response: true
